Reference source for all entries: patent US4454139A

Target: α2 (presynaptic α)-adrenoceptor (Rattus norvegicus, UniProt P22909)
Construct: from tissue; host or cells: rat vas deferens (desheathed, field stimulated)
Assay: α2-adrenoceptor antagonistic activity on the rat field stimulated vas deferens preparation (clonidine agonist)
Assay type: cell-based
Conditions: clonidine as agonist, Arunlakshana & Schild, read-out: pA2 (α2) (converted)
Procedure: The compounds of the invention were tested for their α2 -adrenoceptor antagonistic activity on the rat field stimulated vas deferens preparation using a modification of the method of Drew, Eur.J.Pharmac., 1977, 42, 123-130. The procedure is described below. […] Twitch responses were recorded isotonically with a 0.5 g loading. […] Chemother., 1959, 14, 48-58 and the values of pA2 and slope were calculated.
attribute.measured: Kb (nM)
Reply with just the number (in nM).

Record excerpt, results attached:
[Q] Item under review: CN([C@@H]1CCN2CCc3ccccc3[C@@H]2C1)S(=O)(=O)c1ccc(Cl)c(Cl)c1 (relative stereo) . Reported Kb?
[A] 31.6

[Q] Item under review: O=C(Nc1ccccc1)NC1CCN2CCc3ccccc3C2C1 (stereo not drawn) [reference compound] . Reported Kb?
[A] 3980

New cases:
[Q] Item under review: CCN([C@@H]1CCN2CCc3ccccc3[C@@H]2C1)S(C)(=O)=O (relative stereo) . Reported Kb?
[A] 15.8

* * *

Target: α2 (presynaptic α)-adrenoceptor (Rattus norvegicus)
Construct: from tissue; host or cells: rat vas deferens (desheathed, field stimulated)
Experiment: α2-adrenoceptor antagonistic activity on the rat field stimulated vas deferens preparation (clonidine agonist)
Assay type: cell-based
Conditions: clonidine as agonist, Arunlakshana & Schild, read-out: pA2 (α2) (converted)
attribute.measured: Kb (nM)
Reply with just the number (in nM).

[Q] Item under review: Cc1ccccc1S(=O)(=O)N(C)[C@@H]1CCN2CCc3ccccc3[C@@H]2C1 (relative stereo) . Reported Kb?
[A] 12.6

Now consider the entry below.
[Q] Item under review: Cc1ccc(S(=O)(=O)N(C)[C@@H]2CCN3CCc4ccccc4[C@@H]3C2)cc1 (relative stereo) . Reported Kb?
[A] 7.94

* * *

Molecular target: α2 (presynaptic α)-adrenoceptor (Rattus norvegicus, UniProt P22909)
Construct: from tissue; host or cells: rat vas deferens (desheathed, field stimulated)
Sequence (P22909 1-465): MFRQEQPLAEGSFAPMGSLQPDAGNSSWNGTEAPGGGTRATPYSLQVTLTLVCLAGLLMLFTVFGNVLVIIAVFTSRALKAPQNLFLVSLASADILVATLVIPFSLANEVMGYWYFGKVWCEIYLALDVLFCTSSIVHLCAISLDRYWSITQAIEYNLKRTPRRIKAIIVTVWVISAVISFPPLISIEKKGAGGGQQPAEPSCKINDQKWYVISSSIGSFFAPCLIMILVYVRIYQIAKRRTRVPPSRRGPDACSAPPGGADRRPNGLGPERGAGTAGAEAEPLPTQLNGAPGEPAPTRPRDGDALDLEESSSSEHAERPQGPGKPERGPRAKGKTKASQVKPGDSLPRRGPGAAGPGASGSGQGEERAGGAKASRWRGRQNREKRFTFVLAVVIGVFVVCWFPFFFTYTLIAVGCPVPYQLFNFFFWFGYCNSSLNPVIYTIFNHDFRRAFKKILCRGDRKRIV
Test: α2-adrenoceptor antagonistic activity on the rat field stimulated vas deferens preparation (clonidine agonist)
Type: cell-based
Conditions: clonidine as agonist, Arunlakshana & Schild, read-out: pA2 (α2) (converted)
Method: The compounds of the invention were tested for their α2 -adrenoceptor antagonistic activity on the rat field stimulated vas deferens preparation using a modification of the method of Drew, Eur.J.Pharmac., 1977, 42, 123-130. The procedure is described below. […] Twitch responses were recorded isotonically with a 0.5 g loading. […] Chemother., 1959, 14, 48-58 and the values of pA2 and slope were calculated.
attribute.measured: Kb (nM)
Reply with just the number (in nM).

[Q] Item under review: CN([C@@H]1CCN2CCc3ccccc3[C@@H]2C1)S(=O)(=O)c1ccccc1 (relative stereo) . Reported Kb?
[A] 3.98

[Q] Item under review: S=C(Nc1ccccc1)NC1CCN2CCc3ccccc3C2C1 (centres unmarked) [reference compound] . Reported Kb?
[A] 2510

[Q] Item under review: CC(C)CS(=O)(=O)N(C)[C@@H]1CCN2CCc3ccccc3[C@@H]2C1 (relative stereo) . Reported Kb?
[A] 3.16

[Q] Item under review: CCCS(=O)(=O)N[C@@H]1CCN2CCc3ccccc3[C@@H]2C1 (relative stereo) [reference compound] . Reported Kb?
[A] 316

New cases:
[Q] Item under review: CCCCS(=O)(=O)N(C)[C@@H]1CCN2CCc3ccccc3[C@@H]2C1 (relative stereo) . Reported Kb?
[A] 12.6

[Q] Item under review: CS(=O)(=O)NC1CCN2CCc3ccccc3C2C1 (centres unmarked) [reference compound] . Reported Kb?
[A] 126

[Q] Item under review: CN([C@@H]1CCN2CCc3ccccc3[C@@H]2C1)S(=O)(=O)c1ccc(Cl)cc1 (relative stereo) . Reported Kb?
[A] 25.1

[Q] Item under review: COc1cc2c(cc1OC)[C@@H]1C[C@H](N(C)S(C)(=O)=O)CCN1CC2 (relative stereo) [reference compound] . Reported Kb?
[A] 158

* * *

Biological target: postsynaptic (α1) α-adrenoceptor (Rattus norvegicus, UniProt P43140)
Construct: the isolated anococcygeus muscle of the rat; from tissue; host or cells: rat anococcygeus muscle (male rats, 250-360 g)
Sequence (P43140 whole entry): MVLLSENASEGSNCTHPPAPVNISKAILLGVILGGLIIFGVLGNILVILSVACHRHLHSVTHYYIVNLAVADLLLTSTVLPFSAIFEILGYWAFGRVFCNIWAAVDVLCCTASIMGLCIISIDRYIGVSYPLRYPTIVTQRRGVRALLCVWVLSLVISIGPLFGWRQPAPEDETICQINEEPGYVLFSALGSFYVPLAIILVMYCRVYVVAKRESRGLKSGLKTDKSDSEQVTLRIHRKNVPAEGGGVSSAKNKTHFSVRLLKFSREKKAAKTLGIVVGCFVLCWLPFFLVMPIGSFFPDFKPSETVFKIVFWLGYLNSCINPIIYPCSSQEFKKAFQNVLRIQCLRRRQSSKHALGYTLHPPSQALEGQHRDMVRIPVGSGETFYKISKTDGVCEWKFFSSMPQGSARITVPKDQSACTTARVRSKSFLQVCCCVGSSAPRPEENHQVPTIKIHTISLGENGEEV
Test: postsynaptic (α1) antagonistic activity on the isolated anococcygeus muscle of the rat (phenylephrine or methoxamine agonist)
Type: cell-based
Details: rat anococcygeus muscle; phenylephrine or methoxamine as agonist; α1; read-out: pA2 (postsynaptic) (converted)
Recorded Kb for the following compounds
Reply with just the number (in nM).

[Q] Item under review: CCCS(=O)(=O)N(C)[C@@H]1CCN2CCc3ccccc3[C@@H]2C1 (relative stereo) . Reported Kb?
[A] 724

[Q] Item under review: CCS(=O)(=O)N(C)[C@@H]1CCN2CCc3ccccc3[C@@H]2C1 (relative stereo) . Reported Kb?
[A] 676

[Q] Item under review: Cc1ccccc1S(=O)(=O)N(C)[C@@H]1CCN2CCc3ccccc3[C@@H]2C1 (relative stereo) . Reported Kb?
[A] 537

[Q] Item under review: CCCCS(=O)(=O)N(C)[C@@H]1CCN2CCc3ccccc3[C@@H]2C1 (relative stereo) . Reported Kb?
[A] 251

[Q] Item under review: CCN([C@@H]1CCN2CCc3ccccc3[C@@H]2C1)S(C)(=O)=O (relative stereo) . Reported Kb?
[A] 562

New cases:
[Q] Item under review: CN([C@@H]1CCN2CCc3ccccc3[C@@H]2C1)S(C)(=O)=O (relative stereo) . Reported Kb?
[A] 1120

[Q] Item under review: CN([C@@H]1CCN2CCc3ccccc3[C@@H]2C1)S(=O)(=O)c1ccc(Cl)cc1 (relative stereo) . Reported Kb?
[A] 813

[Q] Item under review: COc1ccc(S(=O)(=O)N(C)[C@@H]2CCN3CCc4ccccc4[C@@H]3C2)cc1 (relative stereo) . Reported Kb?
[A] 316

[Q] Item under review: CN([C@@H]1CCN2CCc3ccccc3[C@@H]2C1)S(=O)(=O)c1ccccc1 (relative stereo) . Reported Kb?
[A] 457

[Q] Item under review: CC(C)CS(=O)(=O)N(C)[C@@H]1CCN2CCc3ccccc3[C@@H]2C1 (relative stereo) . Reported Kb?
[A] 324

[Q] Item under review: Cc1ccc(S(=O)(=O)N(C)[C@@H]2CCN3CCc4ccccc4[C@@H]3C2)cc1 (relative stereo) . Reported Kb?
[A] 468

[Q] Item under review: CN([C@@H]1CCN2CCc3ccccc3[C@@H]2C1)S(=O)(=O)c1ccc(Cl)c(Cl)c1 (relative stereo) . Reported Kb?
[A] 3310

* * *

Recorded Kb for the following compounds
Molecular target: α2 (presynaptic α)-adrenoceptor (Rattus norvegicus)
Construct: from tissue; host or cells: rat vas deferens (desheathed, field stimulated)
Assay: α2-adrenoceptor antagonistic activity on the rat field stimulated vas deferens preparation (clonidine agonist)
Format: cell-based
Details: clonidine as agonist, Arunlakshana & Schild, read-out: pA2 (α2) (converted)
Description: The compounds of the invention were tested for their α2 -adrenoceptor antagonistic activity on the rat field stimulated vas deferens preparation using a modification of the method of Drew, Eur.J.Pharmac., 1977, 42, 123-130. The procedure is described below. […] Twitch responses were recorded isotonically with a 0.5 g loading. […] Chemother., 1959, 14, 48-58 and the values of pA2 and slope were calculated.
Reply with just the number (in nM).

Record excerpt, results attached:
[Q] Item under review: CCS(=O)(=O)N(C)[C@@H]1CCN2CCc3ccccc3[C@@H]2C1 (relative stereo) . Reported Kb?
[A] 20

[Q] Item under review: CCCN([C@@H]1CCN2CCc3ccccc3[C@@H]2C1)S(C)(=O)=O (relative stereo) [reference compound] . Reported Kb?
[A] 100

[Q] Item under review: COc1ccc(S(=O)(=O)N(C)[C@@H]2CCN3CCc4ccccc4[C@@H]3C2)cc1 (relative stereo) . Reported Kb?
[A] 7.94

New cases:
[Q] Item under review: CCCS(=O)(=O)N(C)[C@@H]1CCN2CCc3ccccc3[C@@H]2C1 (relative stereo) . Reported Kb?
[A] 5.01

[Q] Item under review: CN([C@@H]1CCN2CCc3ccccc3[C@@H]2C1)S(C)(=O)=O (relative stereo) . Reported Kb?
[A] 20
